Data origin: paper PMC5686453

EC50, α1β3γ2L GABAA receptor (Rattus norvegicus, UniProt P18508+P62813, INS375LLRMFSFK): measured values
Please give a number only; it is taken to be in nM.

>>> print(df.to_string())
                                   compound  property_name  result_value
0  C#Cc1ccc2c(c1)C(c1ccccn1)=NCc1c(-c3cnco3)ncn1-2           EC50          1730

[in] // returns reported EC50 for input C#Cc1ccc2c(c1)C(c1ccccc1F)=NCc1c(-c3cnco3)ncn1-2 [KRM-II-18B]
[out] 739
